run_description: NCI Yeast Anticancer Drug Screen. Data for the mec2-1 strain (AID 157)
condition_summary: S. cerevisiae mec2-1 strain, at 3.7 µM
The panel holds about 79,000 compounds, 15% with a hit somewhere; the sample as a whole holds those more often. Activity calls are given as the source filed them. No stated cut-off is given here; in the data, active means growth inhibition above about 70%; inactive means the rest.
Parameter call: string, one of yes for active, no for inactive

Solved cases (5 shown):
>>> cat("O=c1c2ccccc2nc(-c2ccc(Cl)cc2)n1O")
"no"
>>> cat("O=[N+]([O-])c1cccc2nc3ccccc3c(NCCCN3CCCCC3)c12")
"yes"
>>> cat("O=C(NCCNCCNC(=O)c1cc(-c2ccccc2)nc2ccccc12)c1cc(-c2ccccc2)nc2ccccc12")
"no"
>>> cat("CNC(=S)N/N=C(/C)CCC/C(C)=N/NC(=S)NC")
"no"
>>> cat("COc1ccc(C(=O)/C=C\\c2ccc(Cl)c(Cl)c2)cc1")
"no"

Request: What did this assay record as the result for CC1=CN2C(c3ccccc3)=NON(c3ccc(C)cn3)C2C=C1 (configuration not stated) ?
Result: no

###

run_description: NCI Yeast Anticancer Drug Screen. Data for the bub3 strain (AID 167)
condition_summary: S. cerevisiae bub3 mutant strain, at 100.0 µM
About 79,000 compounds went through this panel and 15% of them were active in at least one assay; those are over-represented in the sample as a whole. The source made the active and inactive calls. No stated cut-off is given here; in the data, active means growth inhibition above about 70%; inactive means the rest.
Result category, one only: y = active, n = inactive

Some solved entries appear below for comparison.
>>> cat("CC(C(=O)N1C(=O)N(C(=O)C(C)C(O)c2ccccc2)C2CCCCC21)C(O)c1ccccc1 (centres undefined)")
"n"
>>> cat("O=C(NNc1ccccc1)C(CCCCNS(=O)(=O)Cc1ccccc1)NS(=O)(=O)Cc1ccccc1 (centres undefined)")
"n"
>>> cat("O=C1Oc2ccccc2C(=O)/C1=C/N1C(=O)N/C(=C\\c2ccccc2Br)C1=O")
"y"
>>> cat("O=C(CCCN1CCC(Nc2ccc(F)cc2)(c2nnnn2C2CCCCC2)CC1)c1ccc(F)cc1")
"y"
>>> cat("CC(C)S(=O)(=O)/C=C\\S(=O)(=O)C(C)C")
"y"

Request: Query: recorded result category for COc1cc(OC)c(CSCC(NC(=O)OCC2c3ccccc3-c3ccccc32)C(=O)O)c(OC)c1 (centres undefined) in this test
Result: y

Request: What was the test verdict on CCN(CC)C(=S)SC(=S)N(CC)CC ?
Result: y

Request: For CCC(C)(C)c1ccc(Oc2ccccc2)c(N)c1 , what call appears in the results of this test?
Result: y

###

run_description: NCI Yeast Anticancer Drug Screen. Data for the bub3 strain (AID 167)
condition_summary: S. cerevisiae bub3 mutant strain, at 50.0 µM (retest, dose inferred, filed as 5.0), stronger effect = higher value
The panel holds about 79,000 compounds, 15% with a hit somewhere; the sample as a whole holds those more often.
Quick reference for growth inhibition among some compounds
// units = %; emit number, no label

Answered examples (4):
>>> reported_measurement("C=COC(=O)N[C@H]1CCc2cc(OC)c(OC)c(OC)c2-c2ccc(SC)c(=O)cc21")
67
>>> reported_measurement("COc1ccc2cc3c4cc5c(cc4cc[n+]3cc2c1OC)OCO5")
96
>>> reported_measurement("CCCCN(CCCC)c1ccc(N=Nc2ccc(S(=O)(=O)O)cc2)cc1")
96
>>> reported_measurement("O=C1C(=O)N(c2ccccc2)[C@@]2(c3ccccc3)C(=Nc3ccccc3)OC(c3ccccc3)=C12")
9

Request: Requested field: growth inhibition. Item: O=C1Nc2ccc(Br)cc2C1=Nc1cccnc1
Result: 94

###

run_description: NCI Yeast Anticancer Drug Screen. Data for the mlh1 strain (AID 171);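 further: 0% = growth of vehicle-treated control cultures of the same strain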
condition_summary: S. cerevisiae mlh1 strain growth inhibition; at 1.2 µM; stronger effect = higher value
Compounds without any hit were thinned out: in the full panel of roughly 79,000, 15% have a hit.
We begin with a simple list: items and their reported growth inhibition.
Please state the figure in %; there is no need to write the unit.

>>> reported_measurement("C=CCNC1=C2C[C@@H](C)C[C@H](OC)[C@H](O)[C@@H](C)/C=C(\\C)[C@H](OC(N)=O)[C@@H](OC)/C=C\\C=C(/C)C(=O)NC(=CC1=O)C2=O")
-36
>>> reported_measurement("O=C(Nn1c(-c2ccccc2)nc2ccccc2c1=O)c1ccc(CS)cc1")
9
>>> reported_measurement("CCO/C=C1\\SC(=S)N(c2ccc(OCC)cc2)C1=O")
-8
>>> reported_measurement("BrC1C2CCC3OC3C12 (centres undefined)")
-1
>>> reported_measurement("O=C1CCC(Cc2ccccc2)CN1 (centres undefined)")
-3

Please turn your attention to the following entry.
Request: Query (compound): Cc1cc(C)c2[s+]snc2c1 ; field requested: growth inhibition
Result: 1

###

Measured growth inhibition of individual entries
run_description: NCI Yeast Anticancer Drug Screen. Data for the mlh1 strain (AID 171);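 further: 0% = growth of vehicle-treated control cultures of the same strain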
condition_summary: S. cerevisiae mlh1 strain growth inhibition; at 1.2 µM; stronger effect = higher value
About 79,000 compounds went through this panel and 15% of them were active in at least one assay; those are over-represented in the sample as a whole.
Provide only the numeric value, understood in %.

// below: answered molecules
>>> reported_measurement("CCOC(=S)SSSC(=S)OCC")
3
>>> reported_measurement("CCC(C)COC(=O)Nc1cccc(Cl)c1 (stereo not given)")
-6
>>> reported_measurement("Cc1ccc(NC(Nc2ccc(C)cc2C)=C(C(Cl)=C(Cl)Cl)[N+](=O)[O-])c(C)c1")
1

Request: Look at this molecule and give its reported growth inhibition. CC(C)[Si]1(C(C)C)OCC2OC(n3cnc4c(N)ncnc43)C(N)C2O[Si](C(C)C)(C(C)C)O1 (stereo not given)
Result: 3

Request: Which growth inhibition is listed for COC(=O)c1cnc(Cl)c([N+](=O)[O-])c1 ?
Result: 3

###

run_description: NCI Yeast Anticancer Drug Screen. Data for the rad50EPP+ strain (AID 151);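 further: 0% = growth of vehicle-treated control cultures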
condition_summary: S. cerevisiae rad50 mutant strain, at 33.0 µM
Description: Growth inhibition of yeast strains with defined genetic alterations is measured as a screen for potential anti-cancer activity. Selected strains with alterations in DNA damage repair or cell cycle control were exposed to compounds and growth inhibition was measured relative to vehicle treated controls. The strain used in this assay is rad50EPP+
About 79,000 compounds went through this panel and 15% of them were active in at least one assay; those are over-represented in the sample as a whole. Activity calls are given as the source filed them. No stated cut-off is given here; in the data, active means growth inhibition above about 70%; inactive means the rest.
Just give me one of these, please: active, inactive

Examples from the recorded data:
>>> cat("CC12CCC(CC(=O)/C1=C(/Br)I)C2(C)C (stereo not drawn)")
"inactive"
>>> cat("CCCN=Cc1cc(Cc2ccc(O)c(C=NCCC)c2)ccc1O")
"active"
>>> cat("CC1(C)CC(=O)C(C=NC(=S)C(N)=S)=C(O)C1")
"inactive"
>>> cat("NC(=S)N/N=C1\\c2ccccc2CCC1CCC1(O)CCc2ccccc2C1=O (stereo not drawn)")
"inactive"
>>> cat("CCCCCCC1OCC(O)C(OCCCC)O1 (stereo not drawn)")
"inactive"
>>> cat("CCOc1ccc2nc3ccccc3c(N)c2c1")
"inactive"
>>> cat("CCN(CC)CCNc1ccc2nc(C)n3c4ccc(O)cc4c(=O)c1c23")
"inactive"

Kindly review the next compound as well.
Request: Which outcome was assigned to CC(C)C(c1ccccc1)c1ccccc1 in this test?
Result: inactive

###

run_description: NCI Yeast Anticancer Drug Screen. Data for the rad50EPP+ strain (AID 151);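 further: 0% = growth of vehicle-treated control cultures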
condition_summary: S. cerevisiae rad50 mutant strain, at 33.0 µM, stronger effect = higher value
Compounds without any hit were thinned out: in the full panel of roughly 79,000, 15% have a hit.
Returns MET if the recorded growth inhibition is greater than or equal to 30%, and NOT MET otherwise.

Record excerpt, results attached:
>>> cat("CC1=CC(=O)C=CC1=Nc1cc(Cl)c(O)c(Cl)c1")
"NOT MET"
>>> cat("O=[N+]([O-])c1ccc2[nH]c3c(-c4ccccc4)nccc3c2c1")
"MET"
>>> cat("CCCCN(CCC#N)c1ccc(/C=C/c2ccnc3ccccc23)cc1")
"MET"
>>> cat("COC(=N)c1ccc(O)c(C)c1")
"NOT MET"

Request: In plain terms: is recorded growth inhibition at least 30% for O=C1/C(=C/c2ccc(Cl)c(Cl)c2)CNC/C1=C\c1ccc(Cl)c(Cl)c1 ?
Result: MET

###

run_description: NCI Yeast Anticancer Drug Screen. Data for the rad14 strain (AID 159);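 further: 0% = growth of vehicle-treated control cultures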
condition_summary: S. cerevisiae rad14 strain growth inhibition; at 3.7 µM; stronger effect = higher value
Compounds without any hit were thinned out: in the full panel of roughly 79,000, 15% have a hit.
The entries below are paired with their reported growth inhibition.
Quick note: give the figure in %, leave out the unit.

>>> reported_measurement("N#[N+]c1c([O-])c2ccccc2c2ccccc12")
17

Shift focus to the following entry.
Request: Endpoint output: growth inhibition of COc1ccc(C(C)c2cc3c(cc2OCC(C)=O)OCO3)cc1 (stereo not drawn) . Value?
Result: -3

###

Catalogue of compounds with associated growth inhibition
run_description: NCI Yeast Anticancer Drug Screen. Data for the rad18 strain (AID 177)
condition_summary: S. cerevisiae rad18 mutant growth inhibition; at 1.2 µM; stronger effect = higher value
Compounds without any hit were thinned out: in the full panel of roughly 79,000, 15% have a hit.
Write down the numeric answer in % and omit the unit.

Use these answered entries as a reference point.
>>> reported_measurement("CC(=O)O[C@H]1CC[C@@]2(C)C(=CC[C@@H]3C2CC[C@]2(C)C(=O)NC(=O)CC32)C1 (stereo partly drawn)")
-1
>>> reported_measurement("COc1cc2oc3ccccc3c(=O)c2cc1CSc1ccccc1N")
-14

Lab note: next compound to report on.
Request: Recorded growth inhibition of COc1cc(C(=O)C=O)cc(OC)c1OC , please.
Result: 0
